Hello, the source for this data is patent US20240327505A1, in case you need it.

- study system: SARS-CoV-2 spike S1 protein (SARS-CoV-2, UniProt P0DTC2 16-685)
Kindly apply the following: yes (1) if koff is less than 0.001 s⁻¹, no (0) in every other case.

Inquiry: koff under 0.001 s⁻¹? Item: AB-009280 (antibody, V domains shown) VH: QVQLVESGGGVVQPGRSLRLSCAASGFTFSSYGMHWVRQAPGKGLEWVAVISYDGSNKYYADSVKGRFTISRDNSKNTLYLQMNSLRAEDTAVYYCAKSRGGGYYYYYMDVWGKGTTVTVSS VL: DIQMTQSPSSLSASVGDRVTITCRASQGISNYLAWFQQKPGKAPKSLIYAASSLQSGVPSKFSGSGSGTDFTLTISSLQPEDFATYYCQQYNSYPPTFGQGTKLEIK
Reply text: yes (1)

Inquiry: koff under 0.001 s⁻¹? Item: AB-009722 (antibody, V domains shown) VH: QVQLVQSGAEVRKPGSSVKVSCNVSGGIFNSYKITWVRQAPGQGLEWMGGIIAIFGTADYAQRFQGRLSITADESTSTAYMELSSLRSDDTAVYYCTRERFSNYFDPWGQGTLVTVSS VL: EVVLTQSPATLSLSPGERATLSCRASQSVSSFLGWYQQKPGQAPRLLIYDASNRASGIPARFSGSGSGTDFTLTISKLEPEDFAVYYCQQRSRGPSGITFGQGTRLEIK
Reply text: no (0)

Inquiry: koff under 0.001 s⁻¹? Item: AB-009108 (antibody, V domains shown) VH: QVQLQESGPGLVKPSETLALTCTVSGDSIINNNFYWGWLRQPPGQGLEWIGSLFHTGSAYYNSSLKSRVRSSVDTARNQISLRLSSVTAADTAVYYCARVNIVSVPAPPGAIEGWFDPWGQGTRVTVSP VL: SYELTQPPSVSVSLGQTARISCSGDALPTKYVHWYQQKAGQAPVVVIFRDTERPSEIPERFSGSSSGTTVTLTISGVQAEDEADYYCQSVDGSGFYVFGSGTKVTVL
Reply text: no (0)

Inquiry: koff under 0.001 s⁻¹? Item: AB-009619 (antibody, V domains shown) VH: QVQLVQSGAEVKKPGASVKVSCKVSGYTLIELSMHWVRQAPGKGLEWMGGFDPEDGETIYAQKFQGRVTMTEDTSTDTAYMELSSLRSEDTAVYYCATGPAAATSGWFDPWGQGTLVTVSS VL: QSALTQPASVSGSPGQSITISCTGTSSDVGGYNYVSWYQQHPGKAPKLMIYDVSNRPSGVSNRFSGSKSGNTASLTISGLQAEDEADYYCSSYTSSSTRVFGGGTKLTVL
Reply text: yes (1)

Inquiry: koff under 0.001 s⁻¹? Item: AB-009221 (antibody, V domains shown) VH: EVQLVESGGGLVQPGGSLRLSCAASGFTVSSNYMSWVRQAPGKGLEWVSVIYSGGSTYYADSVKGRFTISRHNSKNTLYLQMNSLRAEDTAVYYCARDRNAFDIWGQGTMVIVSS VL: DIQMTQSPSSLSASVGDRVSITCQASQDISNDLNWYQQKPGKAPKLLVYDASKLETGVPPRFSGSGSGTDFTFTISSLQPEDIATYYCQQYDNLPLYSFGQGTKLEIK
Reply text: no (0)
